- Tested on: HL-60(TB) leukemia
- Protocol Notes: NCI tumour cell line growth inhibition, 48 h
Endpoint Name: TGI (µM)
Express your answer in µM, writing the number without its unit.

| Molecule | TGI / µM |
| --- | --- |
| CCCN1CCN(c2ccc3nc(-c4ccc5nc(-c6ccc(OCC)c(OCC)c6)[nH]c5c4)[nH]c3c2)CC1 | 2.74 |

Prompt line: Provide measured TGI value, entry: CCN(CC)CC(O)C1CCC(c2ccccc2)CC1 (stereo not given)
Response line: 58

---

Here the recorded GI50 is given for each entry.
- System: DU-145 prostate
- Protocol Notes: NCI tumour cell line growth inhibition, 48 h

Prompt line: Supply reported GI50 belonging to this molecule: Nc1c(C(=O)Nc2ccccc2)sc2nc3c(cc12)CCCC3
Response line: 1.67 µM

---

- Test system: ACHN renal
- Protocol Notes: NCI tumour cell line growth inhibition, 48 h
Listed compounds paired with reported TGI
All answers are understood in µM, so give the number only.

| Compound | Study Target | Assay Value |
| --- | --- | --- |
| CN1CCCN(C(c2ccccc2)c2ccc(Br)cc2)CC1 (stereo not given) | ACHN renal | 14.1 |
| OCSc1nn(CO)c(=S)s1 | ACHN renal | 68.1 |
| COc1cc(NC(N)=NCCC(C)(C)c2ccc(C(F)(F)F)cc2)ncc1C#N | ACHN renal | 3.01 |

Prompt line: Determine its reported TGI: C[C@@]1(N2C(=O)OC[C@@H]2c2ccccc2)C(=O)N([C@H](CC(=O)N2CCC(N3CCCCC3)CC2)C(=O)NCc2cccc(C(F)(F)F)c2)[C@@H]1/C=C/c1ccccc1
Response line: 4.61

---

Listing of entries alongside the reported TGI.
- Tested on: IGROV1 ovarian
- Protocol Notes: NCI tumour cell line growth inhibition, 48 h

For orientation, consider the following solved cases.
| Compound | Assay Value |
| --- | --- |
| COc1cc2c(cc1OC)C(Cc1c3ccccc3cc3ccccc13)N(C)CC2 (stereo not given) | 65.4 µM |
| COc1ccc(-c2coc3cc(OC)cc(O)c3c2=O)cc1 | > 100 µM |
| CC[C@]12CCCN3CC[C@]4(C(=C(C(=O)OC)C1)Nc1ccccc14)[C@@H]32 | 45.6 µM |
| COc1ccc(Nc2ncccc2C(=O)NCc2cn(Cc3cccc(Oc4ccccc4)c3)nn2)cc1 | > 100 µM |
| O=C1C(N2C(=O)c3ccccc3C2=O)CN1C(COCc1ccccc1)c1ccc(OCc2ccccc2)cc1 (stereo not given) | > 100 µM |
| O=C(c1ccccc1)c1c(CNCc2ccccc2)n(C(=O)c2ccccc2)c2ccccc12 | > 100 µM |
| CCc1ccc(Nc2cc(C)nc3nc(C)nn23)cc1 | > 100 µM |
| Cn1cnc([N+](=O)[O-])c1Sc1nc(N)nc2c1ncn2Cc1ccccc1 | > 100 µM |

Prompt line: Give TGI for the following compound: COc1cc(OC)cc(-c2cncn2-c2ccc(-c3nc4cc(OC)c(OC)c(OC)c4s3)cc2)c1
Response line: > 100 µM

Prompt line: Check the records and state TGI for N/N=C(\C(=O)Nc1ccc([N+](=O)[O-])cc1)C(C1=Nc2cc([N+](=O)[O-])ccc2NC1)[N+](=O)[O-] (stereo not given)
Response line: > 100 µM

---

- Test system: SNB-78 CNS
- Protocol Notes: NCI tumour cell line growth inhibition, 48 h
Endpoint Name: TGI

Sample records with TGI:
| Compound | TGI |
| --- | --- |
| O=C(CSc1nnc(-c2ccc(N=Cc3ccc(Cl)cc3)cc2)o1)Nc1cccc(Cl)c1 | > 100 µM |
| CC1(C)OC(=O)C(=C2CC(c3ccccc3)c3ccccc32)C(=O)O1 (centres undefined) | > 100 µM |
| CC1=NN(C(=O)Cc2ccccc2)C(=O)/C1=C\c1ccco1 | > 100 µM |
| CN1OC2OC(=O)OC2[C@H]1[C@H]1O[C@H](c2ccccc2)OC1(C)c1cc(OC(=O)c2ccccc2)ccc1OC(=O)c1ccccc1 (some centres undefined) | > 50 µM |

Prompt line: Supply TGI value. Item: Cc1cc2c(cc1C)[n+](=O)c(C(=O)/C=C/c1ccccc1Cl)c(C)n2[O-]
Response line: > 100 µM

Prompt line: Answer with the recorded TGI of COc1cc2c(cc1O)C(C)Cc1cc3c(cc1N(C)CC2)OCO3 (centres undefined) only.
Response line: 42.3 µM
